In this section, each of the compounds is paired with its reported log10 AC1.4.
test system: Bovine cardiac myofibrils; test: In vitro model of dose-dependent myofibril ATPase modulation (AC1.4, pyruvate kinase/lactate dehydrogenase-coupled ATPase assay at pCa25); format: biochemical; conditions: concentration at which ATPase activity was 1.4-fold higher than the bottom of the dose curve, mean of a minimum of two independent tests
// stored as log10 of AC1.4 expressed in µM

Input line: Query for Bovine cardiac myofibrils: what log10 AC1.4 does the record show for CS(=O)(=O)c1cccc(C(=O)N2CCC[C@@H]2C(=O)N[C@@H]2CCc3cc(C(F)(F)F)ccc32)c1 ?
Output line: 0.86

====

tested on: Bovine cardiac myofibrils; experiment: In vitro model of dose-dependent myofibril ATPase modulation (AC1.4, pyruvate kinase/lactate dehydrogenase-coupled ATPase assay at pCa25); assay type: biochemical; conditions: concentration at which ATPase activity was 1.4-fold higher than the bottom of the dose curve, mean of a minimum of two independent tests
Parameter: log10 AC1.4 (log10 of the value in µM)
Remember, log10 of AC1.4, in µM.

Input line: For N#CC1CN(S(=O)(=O)N2CC(C(=O)N3CCC[C@@H]3C(=O)NCc3ccc(C(F)(F)F)cc3)C3CC32)C1 (stereo partly drawn) , what is its reported log10 AC1.4?
Output line: 0.37

Input line: Entry N#CC1CN(S(=O)(=O)N2CCC[C@H](C(=O)N3CCC[C@@H]3C(=O)N[C@H](CO)c3ccc(Cl)c(F)c3)C2)C1 : reported log10 AC1.4 = ?
Output line: -0.99

Input line: Which log10 AC1.4 value is on record for Cc1ccc(CNC(=O)[C@H]2CCCN2C(=O)[C@H]2CCCN(S(=O)(=O)N3CC(C#N)C3)C2)cc1C ?
Output line: -0.03

Input line: Need log10 AC1.4, item CS(=O)(=O)c1ccc(C(=O)N2CCCC[C@@H]2C(=O)N[C@@H](c2cc(F)c(Cl)cc2F)C2CC2)cn1
Output line: -0.69

Input line: Would you mind telling me what log10 AC1.4 value was observed for COc1cc(C)ccc1CNC(=O)[C@H]1CCCN1C(=O)[C@H]1CCCN(S(=O)(=O)N2CC(C#N)C2)C1 ?
Output line: 0.18

Input line: # lookup: log10 AC1.4 of N#CC1CN(S(=O)(=O)N2CCC[C@H](C(=O)N3CCC[C@@H]3C(=O)NCc3cc(F)cc(C(F)(F)F)c3)C2)C1
Output line: 0.09

Input line: # query: log10 AC1.4 of entry CC(NC(=O)[C@@H](C)N(C)C(=O)c1cccc(S(=O)(=O)N2CC(C#N)C2)c1)c1ccc(Cl)cc1 (stereo partly drawn)
Output line: -0.10

Input line: What measured log10 AC1.4 goes with CN(C)S(=O)(=O)c1cccc(C(=O)N2CCC[C@@H]2C(=O)NCc2ccc(Cl)c(F)c2)c1 ?
Output line: -0.10

====

tested on: Bovine cardiac myofibrils; assay: In vitro model of dose-dependent myofibril ATPase modulation (AC1.4, pyruvate kinase/lactate dehydrogenase-coupled ATPase assay at pCa25); format: biochemical; details: concentration at which ATPase activity was 1.4-fold higher than the bottom of the dose curve, mean of a minimum of two independent tests
# AC1.4 listing for each entry below

Known AC1.4 results, listed for orientation:
{"Structure Smiles": "O=C(NCc1ccc(C(F)(F)F)cc1)[C@H]1CCCN1C(=O)[C@H]1CCCN(S(=O)(=O)N2CC(Nc3ccc(F)cc3)C2)C1", "Tested Target": "Bovine cardiac myofibrils", "AC1.4": "1.9915 µM"}
{"Structure Smiles": "COc1ccc(CNC(=O)[C@H]2CCCN2C(=O)[C@H]2CCCN(S(=O)(=O)N3CC(C#N)C3)C2)cc1C", "Tested Target": "Bovine cardiac myofibrils", "AC1.4": "4.8355 µM"}
{"Structure Smiles": "N#CC1CN(S(=O)(=O)N2CCC[C@H](C(=O)N3CCC[C@@H]3C(=O)NCc3cc(F)c(F)c(F)c3)C2)C1", "Tested Target": "Bovine cardiac myofibrils", "AC1.4": "0.2697 µM"}
{"Structure Smiles": "COc1cccc(C(=O)N2CCC[C@@H]2C(=O)N[C@@H](c2ccc(C(F)(F)F)cc2F)C2CC2)c1", "Tested Target": "Bovine cardiac myofibrils", "AC1.4": "8.852 µM"}

Input line: Quick one: AC1.4 for N#CC1CN(S(=O)(=O)N2CCC[C@H](C(=O)N3CCOC[C@@H]3C(=O)NCc3ccc(C(F)(F)F)cc3)C2)C1 ?
Output line: 0.1712 µM

====

Catalogue of AC1.4 values
System: Bovine cardiac myofibrils
Experiment: In vitro model of dose-dependent myofibril ATPase modulation (AC1.4, pyruvate kinase/lactate dehydrogenase-coupled ATPase assay at pCa25)
Type: biochemical
Details: concentration at which ATPase activity was 1.4-fold higher than the bottom of the dose curve, mean of a minimum of two independent tests
Procedure: In vitro Model of Dose-Dependent Myofibril ATPase Modulation: Dose responses were measured using a calcium-buffered, pyruvate kinase and lactate dehydrogenase-coupled ATPase assay containing the following reagents (concentrations expressed are final assay concentrations): Potassium PIPES (12 mM), MgCl2 (2 mM), ATP (1 mM), DTT (1 mM), BSA (0.1 mg/mi), NADH (0.5 mM), PEP (1.5 mM), pyruvate kinase (4 U/ml), lactate dehydrogenase (8 U/ml), and antifoam (90 ppm). […]
The number alone won't do; follow it with the unit.

{"Compound": "N#CC1CN(S(=O)(=O)c2cccc(C(=O)N3C[C@H]4C[C@H]4[C@@H]3C(=O)NCc3ccc(C(F)(F)F)cc3)c2)C1 [Example 5]", "AC1.4": "0.01655 µM"}
{"Compound": "C[C@@H](NC(=O)[C@H]1CCCN1C(=O)c1cccc(S(=O)(=O)N2CC(C#N)C2)c1)c1cc(F)cc(F)c1 [Example 205]", "AC1.4": "0.4322 µM"}
{"Compound": "O=C(NCc1ccc(C(F)(F)F)cc1)[C@H]1CCCN1C(=O)[C@H]1CCCN(S(=O)(=O)N2CC(F)(C(F)(F)F)C2)C1 [Example 760]", "AC1.4": "7.661 µM"}

Input line: Field: AC1.4 (Bovine cardiac myofibrils). Entry: N#CC1CN(S(=O)(=O)N2CCN[C@H](C(=O)N3CCC[C@@H]3C(=O)NCc3ccc(Cl)c(F)c3)C2)C1 [Example 174]
Output line: 0.3052 µM

====

tested on: Bovine cardiac myofibrils; assay: In vitro model of dose-dependent myofibril ATPase modulation (AC1.4, pyruvate kinase/lactate dehydrogenase-coupled ATPase assay at pCa25); format: biochemical; settings: concentration at which ATPase activity was 1.4-fold higher than the bottom of the dose curve, mean of a minimum of two independent tests
Below, each of the molecules is paired with its reported AC1.4 value.
A number alone suffices; assume µM.

As a guide, the following entries are already answered.
{"Molecule": "CS(=O)(=O)c1cccc(C(=O)N2C[C@@H](F)C[C@@H]2C(=O)N[C@@H](c2ccc(C(F)(F)F)cc2F)C2(F)COC2)c1", "Result Units": "µM", "AC1.4": 5.7465}
{"Molecule": "N#CC1CN(S(=O)(=O)c2cccc(C(=O)N3CCC[C@@H]3C(=O)NCc3ccc(Cl)nc3)c2)C1", "Result Units": "µM", "AC1.4": 0.639}
{"Molecule": "CC1(O)CN(S(=O)(=O)N2CCC[C@H](C(=O)N3CCC[C@@H]3C(=O)NCc3ccc(Cl)c(F)c3)C2)C1", "Result Units": "µM", "AC1.4": 4.6285}
{"Molecule": "CS(=O)(=O)c1cccc(C(=O)N2CCC(F)(F)CC2C(=O)N[C@@H](c2ccc(C(F)(F)F)cc2F)C2CC2)c1 (stereo partly shown)", "Result Units": "µM", "AC1.4": 2.4285}
{"Molecule": "CCc1ccnc(C(=O)N2[C@@H](C(=O)N[C@@H](c3cc(F)c(Cl)cc3F)C3COC3)C[C@H]3C[C@H]32)c1", "Result Units": "µM", "AC1.4": 2.893}

Input line: Lab request: please report AC1.4 under test system Bovine cardiac myofibrils for Cc1cc(C(=O)N2[C@@H](C(=O)N[C@@H](c3cc(F)c(Cl)cc3F)C3COC3)C[C@H]3C[C@H]32)cc(S(C)(=O)=O)c1
Output line: 0.2351

Input line: Observed AC1.4 on Bovine cardiac myofibrils for C[C@@H](NC(=O)[C@H]1CCCN1C(=O)[C@H]1CCCN(S(=O)(=O)N2CC(C#N)C2)C1)c1ccc(C(F)(F)F)cc1F , please.
Output line: 0.03155

Input line: Item CCS(=O)(=O)c1cccc(C(=O)N2[C@@H](C(=O)N[C@@H](c3ccc(C(F)(F)F)cc3F)C3(O)CC3)C[C@H]3C[C@H]32)c1 with Bovine cardiac myofibrils - AC1.4?
Output line: 1.232

Input line: # returns recorded AC1.4 (system: Bovine cardiac myofibrils) for N#CC1CN(S(=O)(=O)N2CCC[C@H](C(=O)N3CCC[C@@H]3C(=O)NCc3ccc(F)cc3Cl)C2)C1
Output line: 0.7331

Input line: Value wanted: AC1.4 (Bovine cardiac myofibrils) of entry CCS(=O)(=O)c1cccc(C(=O)N2[C@@H](C(=O)N[C@@H](c3cc(F)c(Cl)cc3F)[C@H](C)O)C[C@H]3C[C@H]32)c1
Output line: 1.361

Input line: // fetch Bovine cardiac myofibrils AC1.4 for CC[C@H](NC(=O)[C@H]1CCCN1C(=O)[C@H]1CCCN(S(=O)(=O)N2CC(C#N)C2)C1)c1ccc(C(F)(F)F)cc1
Output line: 0.3859

Input line: Missing value: AC1.4, Bovine cardiac myofibrils, entry N#CC1CN(S(=O)(=O)c2cccc(C(=O)N3CCC[C@@H]3C(=O)NCc3ccc(Cl)c(Cl)c3)c2)C1 . Fill in?
Output line: 0.02715

Input line: Field: AC1.4 (Bovine cardiac myofibrils). Entry: COC(=O)CS(=O)(=O)c1cccc(C(=O)N2[C@@H](C(=O)N[C@@H](c3cc(F)c(C(F)(F)F)cc3F)C3CC3)C[C@H]3C[C@H]32)c1
Output line: 0.1046
